Consider the following compounds and their measured Selectivity Ki ratio α1β1/α2β3 readings.
# Test system: human Na,K-ATPase α2β3FXYD1
# test name: biochemical
# Assay type: biochemical
Respond with the number and no other words.

Some entries whose results are on file:
>>> experimental_value("CC1CN(CC(F)(F)F)CCC(O[C@@H]2[C@H](C)O[C@@H](O[C@@H]3[C@H](C)O[C@@H](O[C@H]4CC[C@@]5(C)C(CCC6C5C[C@H](O)[C@]5(C)[C@@H](C7=CC(=O)OC7)CC[C@]65O)C4)C[C@@H]3O)C[C@@H]2O)O1 (stereo partly shown)")
9.6
>>> experimental_value("CC1CN(C(C)(C)C)CCC(O[C@@H]2[C@H](C)O[C@@H](O[C@@H]3[C@H](C)O[C@@H](O[C@H]4CC[C@@]5(C)C(CCC6C5C[C@H](O)[C@]5(C)[C@@H](C7=CC(=O)OC7)CC[C@]65O)C4)C[C@@H]3O)C[C@@H]2O)O1 (stereo partly shown)")
8.2

Okay, next one:
May I ask what Selectivity Ki ratio α1β1/α2β3 has been recorded for CC1CN(C2CCC2)CCC(O[C@@H]2C(C)O[C@@H](O[C@@H]3C(C)O[C@@H](O[C@H]4CC[C@@]5(C)C(CCC6C5CC(O)[C@]5(C)[C@@H](C7=CC(=O)OC7)CC[C@]65O)C4)C[C@@H]3O)C[C@@H]2O)O1 (stereo in doubt) ?
33
